biological target: UniProt:P22303
Sequence (P22303 whole entry): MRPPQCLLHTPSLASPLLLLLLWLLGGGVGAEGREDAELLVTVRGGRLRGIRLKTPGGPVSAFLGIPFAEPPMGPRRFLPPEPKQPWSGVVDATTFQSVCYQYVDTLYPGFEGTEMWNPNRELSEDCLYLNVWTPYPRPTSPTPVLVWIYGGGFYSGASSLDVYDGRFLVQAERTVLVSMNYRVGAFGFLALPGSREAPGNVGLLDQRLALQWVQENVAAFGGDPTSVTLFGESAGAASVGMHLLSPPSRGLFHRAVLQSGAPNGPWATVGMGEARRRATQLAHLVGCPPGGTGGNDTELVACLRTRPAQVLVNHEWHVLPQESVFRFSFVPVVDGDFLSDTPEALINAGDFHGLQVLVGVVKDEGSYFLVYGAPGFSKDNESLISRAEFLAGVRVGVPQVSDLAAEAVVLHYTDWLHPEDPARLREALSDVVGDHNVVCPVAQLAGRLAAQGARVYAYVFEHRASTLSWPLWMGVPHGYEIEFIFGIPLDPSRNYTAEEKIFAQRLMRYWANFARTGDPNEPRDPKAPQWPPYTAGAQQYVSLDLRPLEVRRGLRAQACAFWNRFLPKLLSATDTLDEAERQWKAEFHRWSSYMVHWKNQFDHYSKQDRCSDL
pIC50: −log10 of the molar value.

COMPOUND: O=C(C[n+]1ccccc1)N/N=C/c1ccc(/C=N/NC(=O)C[n+]2ccccc2)cc1
TARGET_OR_SYSTEM: UniProt:P22303
pIC50: 8.64
--
COMPOUND: C[N+](C)(C)CCCCCCCCCC[N+](C)(C)C [DECAMETHONIUM BROMIDE]
TARGET_OR_SYSTEM: UniProt:P22303
pIC50: 6.00

----------
molecular target: Bcl-2-like protein 10 (Homo sapiens)
Sequence (Q9HD36 whole entry): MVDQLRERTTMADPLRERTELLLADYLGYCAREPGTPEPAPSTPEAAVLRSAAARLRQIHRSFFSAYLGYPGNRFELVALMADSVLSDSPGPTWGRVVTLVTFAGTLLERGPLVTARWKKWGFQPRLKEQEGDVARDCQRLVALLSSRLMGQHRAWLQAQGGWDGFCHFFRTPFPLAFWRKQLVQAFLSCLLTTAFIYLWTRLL
pKi: −log10 of the molar value.
PROPERTY: pKi

QUERY_SMILES: CN(C)CC[C@H](CSc1ccccc1)Nc1ccc(S(=O)(=O)NC(=O)c2ccc(N3CCN(Cc4ccccc4-c4ccc(Cl)cc4)CC3)cc2)cc1[N+](=O)[O-]
MEASURED: < 9.00
